Every entry's value here was drawn from patent US20250163057A1.

TEST_SYSTEM: DCN1 (DCUND1) protein PONY domain (Homo sapiens (Human))
Sequence (Q96GG9 60-248): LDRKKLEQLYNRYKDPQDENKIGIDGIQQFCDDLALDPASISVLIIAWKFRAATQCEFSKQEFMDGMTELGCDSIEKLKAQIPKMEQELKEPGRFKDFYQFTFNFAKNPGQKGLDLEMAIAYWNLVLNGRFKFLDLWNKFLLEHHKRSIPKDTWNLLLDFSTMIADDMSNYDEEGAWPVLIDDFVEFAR
ASSAY_PROCEDURE: TR-FRET assay, DCN1 binding with FAM-labeled probe
RECORDED_CONDITIONS: read-out: TR FRET IC50 1 hr; 1 hr after treatment with compound
ATTRIBUTE_MEASURED: IC50

// below: answered molecules
MOLECULE: C=C(CN1C[C@@H]2C[C@H]1CO2)C(=O)NCc1nn(-c2ccccc2)c2c1[C@H](c1ccc(F)cc1)[C@H](NC(=O)c1cccc(C(F)(F)F)c1)C(=O)N2CC (mixture of isomers) [Compound I-12]
IC50: ≤ 200 nM
//
MOLECULE: CCN1C(=O)[C@@H](NC(=O)c2ccc3c(c2)CCC3)[C@@H](C2CC2)c2c(C(=O)N3[C@H](C#N)C[C@H]4C[C@H]43)nn(C3CCOCC3)c21 [Compound I-391]
IC50: ≤ 200 nM

Consider the record given below.
Exercise: Looking for the measured IC50 of CCN1C(=O)[C@@H](NC(=O)c2cccc(C(F)(F)F)c2)[C@@H](c2ccc(F)cc2)c2c(C(=O)N(C)[C@@H](C#N)CCN(C)C)nn(C3CCOCC3)c21 [Compound I-369] , can you help?
Solution: ≤ 200 nM

----------
# IC50 annotations
Test system: Cullin-3 (CUL3) neddylation
ASSAY_PROCEDURE: AlphaLISA assay for Cullin-3 (CUL3) neddylation in TF 1 cells
Type: cell-based
RECORDED_CONDITIONS: Homo sapiens, TF-1, 3 h, 3 hours treatment

COMPOUND: CCN1C(=O)[C@@H](NC(=O)c2cccc(C(F)(F)F)c2)[C@@H](c2ccc(F)cc2)c2c([C@@H](CCCO)NC#N)nn(-c3ccccc3)c21
IC50: ≤ 100 nM
--
COMPOUND: CCCn1nc(C(=O)N(C)C(C)C#N)c2c1N(CC)C(=O)[C@@H](NC(=O)c1cccc(C(F)(F)F)c1)[C@H]2c1ccc(F)cc1 (some centres unmarked)
IC50: ≤ 100 nM
--
COMPOUND: C#CC(=O)NCc1nn(-c2ccccc2)c2c1[C@H](c1ccc(F)cc1)[C@H](NC(=O)c1cccc(C(F)(F)F)c1)C(=O)N2CC (racemic)
IC50: ≤ 100 nM
--
COMPOUND: C=C(C(=O)O)c1nn(-c2ccccc2)c2c1[C@H](c1ccc(F)cc1)[C@H](NC(=O)c1cccc(C(F)(F)F)c1)C(=O)N2CC [Compound I-153]
IC50: ≤ 100 nM
--
COMPOUND: CCN1C(=O)[C@@H](NC(=O)c2cccc(C(F)(F)F)c2)[C@@H](c2ccc(F)cc2)c2c([C@@H](C)NC#N)nn(C3CCOCC3)c21
IC50: 100 to 1000 nM

Exercise: Find IC50 (Cullin-3 (CUL3) neddylation) for the entry `C=C(CN1CC2(CCO2)C1)C(=O)NCc1nn(-c2ccccc2)c2c1[C@H](c1ccc(F)cc1)[C@H](NC(=O)c1cccc(C(F)(F)F)c1)C(=O)N2CC`
Solution: ≤ 100 nM

Exercise: Find IC50 (Cullin-3 (CUL3) neddylation) for the entry CCN1C(=O)[C@@H](NC(=O)c2cccc(C(F)(F)F)c2)[C@@H](c2ccc(F)cc2)c2c(C(=O)N(CC#N)CC(=O)OC)nn(-c3ccccc3)c21 (stereo in doubt)
Solution: ≤ 100 nM

Exercise: Find IC50 (Cullin-3 (CUL3) neddylation) for the entry `CCN1C(=O)[C@@H](NC(=O)c2cccc(C(F)(F)F)c2)[C@@H](C2CC2)c2c(C(=O)N3C[C@@H](NC)C[C@H]3C#N)nn(C3CCOCC3)c21`
Solution: > 1000 nM

Exercise: Find IC50 (Cullin-3 (CUL3) neddylation) for the entry C=C(CN(C)C)C(=O)N(C)Cc1nn(-c2ccccc2)c2c1[C@H](c1ccc(F)cc1)[C@H](NC(=O)c1cccc(C(F)(F)F)c1)C(=O)N2CC (racemic)
Solution: ≤ 100 nM

Exercise: Find IC50 (Cullin-3 (CUL3) neddylation) for the entry C=C(C(=O)O)c1nn(-c2ccccc2)c2c1[C@H](c1ccc(F)cc1)[C@H](NC(=O)c1cccc(C(F)(F)F)c1)C(=O)N2CC (racemic) [Compound I-53]
Solution: 100 to 1000 nM

Exercise: Find IC50 (Cullin-3 (CUL3) neddylation) for the entry `CCN1C(=O)[C@@H](NC(=O)c2cccc(C(F)(F)F)c2)[C@@H](c2ccc(F)cc2)c2c(COCC#N)nn(-c3ccccc3)c21`
Solution: 100 to 1000 nM
